The measured values listed here are drawn from ChEMBL document CHEMBL5058577.

Test system: HEK-293T
experiment_notes: Multiplex assay against HEK293T
Format: toxicity, cell-based
stated_conditions: human, 48 h, 10 µM, compound concentration 10 uM, replicate 1
// NB: equality with 30% counts as Not satisfied; only Population Mitochondria Different-Phenotype (%) strictly below is Satisfied

Example entries begin here.
CN(C)C(=O)Cn1cc(-c2ccc(-c3nnc4ccccn34)cc2)cn1    Satisfied
CN1CCN(c2ccc(Nc3c4ccccc4nc4ccccc34)cc2)CC1.Cl.Cl.O    Not satisfied
Cc1cc(=O)n(C)c2cc(N3C(=O)CC[C@H](NS(=O)(=O)CC(C)C)[C@H]3c3ccc(Cl)cc3)ccc12    Not satisfied
CN1CCN2c3ccccc3Cc3ccccc3C2C1.Cl (centres undefined) [MIANSERIN HYDROCHLORIDE]    Satisfied
Cc1cc(-c2ccc3c(c2)CC[C@H]3N2CC3(CCN(C(=O)Cc4cn5cc(C)sc5n4)CC3)C2)ncn1 [PF-5190457]    Satisfied
C=CCN1C[C@H](C(=O)N(CCCN(C)C)C(=O)NCC)C[C@@H]2c3cccc4[nH]cc(c34)C[C@H]21 [CABERGOLINE]    Not satisfied
COCCCN1CCC(NC(=O)c2cc(Cl)c(N)c3c2OCC3)CC1 [PRUCALOPRIDE]    Not satisfied
CC(C)(C)c1ccc(CSc2cnn(C(C)(C)C)c(=O)c2Cl)cc1 [PYRIDABEN]    Not satisfied

For the next question, use this compound.
Strictly below 30% in Population Mitochondria Different-Phenotype (%)? CC(C)C[C@H](CO)Nc1nc(S[C@@H](C)c2ccccc2)nc2nc(N)sc12 [AZD-8797] Not satisfied
